assay: chemical genetic growth profiling, strain panel (AID 1159580);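 note: tested at 20 µM; growth read once vehicle control cultures reached saturation at 30 °C; 1 = growth at the plate median or of vehicle wells; lower values mean less growth of the strain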; settings: S. cerevisiae deletion strains, growth OD, locus YKR001C, strain vps1, hits give low values
In all, about 5,500 compounds went through this assay and about 2,000 (36%) were called active. About 18% were inconclusive and are not listed. The list shows a part of the results.

{"compound": "C[C@@H]1O[C@@H](O[C@H]2[C@H](Oc3cc(O)c4c(=O)cc(-c5ccc(O)cc5)oc4c3)O[C@H](CO)[C@@H](O)[C@@H]2O)[C@H](O)[C@H](O)[C@H]1O", "normalized growth": 0.982}
{"compound": "NCCc1cnc[nH]1", "normalized growth": 1.01}
{"compound": "C=C1C2CC[C@@]3(C)[C@H](c4ccoc4)OC(=O)C[C@]13O[C@H]1CC(=O)C(C)(C)[C@H](C(OC(C)=O)C(=O)OC)[C@@]21C (stereo not given in full)", "normalized growth": 0.995}
{"compound": "CC1(C)S[C@@H]2[C@H](NC(=O)[C@H](N)c3ccccc3)C(=O)N2[C@H]1C(=O)O", "normalized growth": 0.991}
{"compound": "COc1ccc(C(=O)O)cc1OC", "normalized growth": 1.05}

* * *

experiment: chemical genetic growth profiling, strain panel (AID 1159580);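 note: tested at 20 µM; growth read once vehicle control cultures reached saturation at 30 °C; 1 = growth at the plate median or of vehicle wells; lower values mean less growth of the strain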; conditions: S. cerevisiae deletion strains, growth OD, locus YOR083W, strain WHI5, hits give low values
Out of some 5,500 compounds screened, about 2,000 (36%) were called active. About 18% were inconclusive and are not listed. The list shows a part of the results.
Let's look at some compounds and their measured normalized growth.

{"compound": "c1ccc2c(c1)CCCC2C1=NCCN1 (stereo not given)", "normalized growth": "1.03 (inactive)"}
{"compound": "O=C(O)CCCc1ccccc1", "normalized growth": "0.975 (inactive)"}
{"compound": "N[C@@H](Cc1ccc(N(CCCl)CCCl)cc1)C(=O)O", "normalized growth": "0.963 (inactive)"}
{"compound": "COc1ccc(CN(CCN(C)C)c2ccccn2)cc1", "normalized growth": "0.998 (inactive)"}
{"compound": "O=C(O)c1cc2cc(F)ccc2[nH]1", "normalized growth": "0.965 (inactive)"}
{"compound": "CN1CC(=O)N=C1N", "normalized growth": "1.01 (inactive)"}
{"compound": "COc1cc([C@@H]2c3cc4c(cc3C(OC3O[C@@H]5COC(C)O[C@H]5[C@H](O)[C@H]3O)C3COC(=O)[C@@H]32)OCO4)cc(OC)c1O (stereo not given in full)", "normalized growth": "0.979 (inactive)"}
{"compound": "NCCCS(=O)(=O)O", "normalized growth": "1 (inactive)"}
{"compound": "N=c1ccn2c(n1)OC1C(O)C(CO)OC12 (stereo not given)", "normalized growth": "1.01 (inactive)"}
{"compound": "OCC(O)CN1CCN(c2ccccc2)CC1 (stereo not given)", "normalized growth": "0.934 (inactive)"}
{"compound": "CCCc1cc(C(N)=S)ccn1", "normalized growth": "0.946 (inactive)"}
{"compound": "C=C1C2CC[C@@]3(C)[C@H](c4ccoc4)OC(=O)C[C@]13O[C@H]1CC(=O)C(C)(C)[C@H](C(OC(C)=O)C(=O)OC)[C@@]21C (stereo not given in full)", "normalized growth": "0.978 (inactive)"}
{"compound": "O=C1CCC(N2C(=O)c3ccccc3C2=O)C(=O)N1 (stereo not given)", "normalized growth": "1.01 (inactive)"}
{"compound": "CCN1CCCC(OC(=O)C(c2ccccc2)c2ccccc2)C1 (stereo not given)", "normalized growth": "0.98 (inactive)"}
{"compound": "O=C(/C=C/c1ccc(O)c(O)c1)OCCc1ccccc1", "normalized growth": "0.81 (active)"}
{"compound": "COc1cc2nc(N(C)CCCNC(=O)C3CCCO3)nc(N)c2cc1OC (stereo not given)", "normalized growth": "1 (inactive)"}
{"compound": "Cc1ccc(C(=O)Nc2ccc(S(=O)(=O)O)c3cc(S(=O)(=O)O)cc(S(=O)(=O)O)c23)cc1NC(=O)c1cccc(NC(=O)Nc2cccc(C(=O)Nc3cc(C(=O)Nc4ccc(S(=O)(=O)O)c5cc(S(=O)(=O)O)cc(S(=O)(=O)O)c45)ccc3C)c2)c1", "normalized growth": "1.04 (inactive)"}
{"compound": "CC1(O)CC2C(CC1O)C2(C)C (stereo not given)", "normalized growth": "0.999 (inactive)"}
{"compound": "COc1ccc2c(c1)OC/C(=C/c1ccc(OC)c(OC)c1)C2=O", "normalized growth": "0.852 (active)"}
{"compound": "CNC(=O)O/N=C(\\C)SC", "normalized growth": "1 (inactive)"}
{"compound": "COc1cc(CNC(=O)CCCC/C=C/C(C)C)ccc1O", "normalized growth": "0.962 (inactive)"}
{"compound": "CCOC(=O)n1ccn(C)c1=S", "normalized growth": "1.01 (inactive)"}
{"compound": "CC(=O)Oc1cc(OC(C)=O)c2c(c1)O[C@H](c1ccc(OC(C)=O)c(OC(C)=O)c1)[C@H](OC(C)=O)C2", "normalized growth": "0.997 (inactive)"}
{"compound": "C#CCN(C)Cc1ccccc1", "normalized growth": "1 (inactive)"}
{"compound": "CC[C@@]1(O)C[C@H](O)c2c(cc3c(c2O)C(=O)c2c(O)ccc(O)c2C3=O)[C@H]1C(=O)OC", "normalized growth": "0.806 (active)"}
{"compound": "NS(=O)(=O)c1cc2c(cc1Cl)NC=NS2(=O)=O", "normalized growth": "0.989 (inactive)"}
{"compound": "CN(C)CCN(Cc1cccs1)c1ccccn1", "normalized growth": "1.01 (inactive)"}
{"compound": "CCCCC/C=C/CCC(=O)N[C@H]1[C@H](Oc2c3cc4cc2Oc2ccc(cc2Cl)[C@@H](O[C@@H]2O[C@H](CO)[C@@H](O)[C@H](O)[C@H]2NC(C)=O)[C@@H]2NC(=O)[C@H](NC(=O)[C@@H]4NC(=O)[C@H]4NC(=O)C(Cc5ccc(c(Cl)c5)O3)NC(=O)[C@H](N)c3ccc(O)c(c3)Oc3cc(O)cc4c3)c3ccc(O)c(c3)-c3c(OC4O[C@H](CO)[C@@H](O)[C@H](O)[C@@H]4O)cc(O)cc3[C@@H](C(=O)O)NC2=O)O[C@H](CO)[C@@H](O)[C@@H]1O (stereo not given in full)", "normalized growth": "1 (inactive)"}
{"compound": "C=CC[C@]1(O)CCC2C3CCC4=CC(=O)CCC4=C3C=C[C@@]21C (stereo not given in full)", "normalized growth": "0.994 (inactive)"}
{"compound": "CC#CC1(O)CCC2C3CCC4=CC(=O)CCC4=C3C(c3ccc(N(C)C)cc3)CC21C (stereo not given)", "normalized growth": "0.976 (inactive)"}
{"compound": "COc1ccc(C(=O)O)cc1OC", "normalized growth": "0.996 (inactive)"}
{"compound": "CC[C@@]1(O)C[C@H](O[C@H]2C[C@H](N(C)C)[C@H](O)[C@H](C)O2)c2c(cc3c(c2O)C(=O)c2c(O)ccc(O)c2C3=O)[C@H]1C(=O)OC", "normalized growth": "0.918 (inactive)"}
{"compound": "C=C[C@@](C)(O)CCC1C(=C)CCC2[C@@](C)(CO)CCC[C@]12C (stereo not given in full)", "normalized growth": "0.939 (inactive)"}
{"compound": "C=C1CCC2[C@](C)(CO)[C@H](O)CC[C@@]2(C)[C@@H]1C/C=C1/C(=O)OC[C@H]1O (stereo not given in full)", "normalized growth": "1 (inactive)"}
{"compound": "OCCc1ccccc1", "normalized growth": "0.995 (inactive)"}
{"compound": "COc1ccc2c(c1)OC/C(=C\\c1ccc(OC)c(O)c1)C2=O", "normalized growth": "0.869 (active)"}
{"compound": "CC[C@@H](C(=O)C(C)[C@@H](O)[C@H](C)CCc1ccc(C)c(O)c1C(=O)O)C1OC(CC)(C2CC[C@](O)(CC)[C@H](C)O2)C[C@@H]1C (stereo not given in full)", "normalized growth": "1.07 (inactive)"}
{"compound": "O=S(=O)(O)c1cc(N=C=S)ccc1/C=C/c1ccc(N=C=S)cc1S(=O)(=O)O", "normalized growth": "1.01 (inactive)"}
{"compound": "Cc1[nH]c2ccccc2c1CN(C)C", "normalized growth": "1.01 (inactive)"}
{"compound": "CCCCCCCCCCC[C@@H](C[C@H]1OC(=O)[C@H]1CCCCCC)OC(=O)[C@@H](CC(C)C)NC=O", "normalized growth": "1.04 (inactive)"}
